Sourced from patent US4272437A

result type: MIC

Query: Report MIC on Klebsiella species A20468 for this entry: NCC[S+]([O-])CC1=C(C(=O)O)N2C(=O)C[C@H]2S1 (stereo partly drawn)
Result: > 63 µg/mL

Query: Report MIC on Klebsiella species A20468 for this entry: CC1=C(C(=O)O)N2C(=O)[C@H]([C@@H]3COC(C)(C)O3)[C@H]2S1 (relative stereo)
Result: > 63 µg/mL

Query: Report MIC on Klebsiella species A20468 for this entry: CCCCCC1=C(C(=O)[O-])N2C(=O)C[C@H]2S1.[K+] [Preparation 16, Potassium 2-Pentylpenem-3-carboxylate]
Result: > 125 µg/mL

* * *

System: Staph. aureus A-9537 and 50% serum
Test: MIC, tube dilution, Staph. aureus A9537 + 50% serum
Type: cell-based, Staphylococcus aureus
Conditions: Staphylococcus aureus, overnight 37° C., read-out: Minimum Inhibitory Concentration (M.I.C.)
result type: MIC (µg/mL)
Hi! Could you send only the number? It should be in µg/mL, unit omitted.

Query: Query MIC for COCC1=C(C(=O)[O-])N2C(=O)C[C@H]2S1.[Na+] [Preparation 6]
Result: 32

Query: Query MIC for NCCOCC1=C(C(=O)O)N2C(=O)CC2S1 (stereo not shown) [Example 86]
Result: 1

Query: Query MIC for CC1=C(C(=O)O)N2C(=O)[C@H]([C@@H](C)O)[C@H]2S1 (relative stereo) [Example 60]
Result: 8

Query: Query MIC for CC1(C)OCC(C(N)C2=C(C(=O)O)N3C(=O)CC3S2)O1 (stereo not shown) [Example 84]
Result: 32

Query: Query MIC for O=C([O-])C1=C(COCc2ccccc2)S[C@@H]2CC(=O)N12.[Na+] [Preparation 14 (Na^+ Salt)]
Result: 32

Query: Query MIC for O=C(O)C1=CSC2CC(=O)N12 (stereo not shown) [Example 19, Penem-3-carboxylic Acid]
Result: 63

Query: Query MIC for C[C@@H](O)[C@H]1C(=O)N2C(C(=O)O)=C(CN)S[C@H]12 (relative stereo) [Example 62]
Result: 0.25

* * *

Please go through the items and note down their MIC.
System: Proteus rettgeri A21203
Experiment: MIC, tube dilution, Proteus rettgeri A21203
Assay type: cell-based
Conditions: Providencia rettgeri; Proteus rettgeri A21203; overnight 37° C.; read-out: Minimum Inhibitory Concentration (M.I.C.)
Hi! Could you send only the number? It should be in µg/mL, unit omitted.

Query: Query MIC for "O=C([O-])C1=C(Cc2ccco2)S[C@@H]2CC(=O)N12.[Na+]"
Result: 4

Query: Query MIC for O=C(O)C1=C(Cc2cscn2)SC2CC(=O)N12 (centres unmarked)
Result: 125

Query: Query MIC for CCCCC1=C(C(=O)[O-])N2C(=O)C[C@H]2S1.[Na+] [Preparation 24, Sodium 2-butylpenem-3-carboxylate]
Result: 8

Query: Query MIC for O=C(O)C1=C(C(F)(F)F)SC2CC(=O)N12 (centres unmarked)
Result: 125

Query: Query MIC for O=C([O-])C1=C(Cc2ccccc2)S[C@@H]2CC(=O)N12.[Na+] [Preparation 21, Sodium 2-Benzylpenem-3-carboxylate]
Result: 4

* * *

K. pneumoniae A-15130 MIC data
Hi! Could you send only the number? It should be in µg/mL, unit omitted.

Query: Query MIC for C[C@@H](O)[C@H]1C(=O)N2C(C(=O)O)=C(COCCN)S[C@H]12 (relative stereo)
Result: 2

Query: Query MIC for "COCC1=C(C(=O)[O-])N2C(=O)C[C@H]2S1.[Na+]"
Result: 8

Query: Query MIC for O=C(O)C1=C(C2CCC2)SC2CC(=O)N12 (centres unmarked)
Result: 16

Query: Query MIC for "CSCC1=C(C(=O)O)N2C(=O)C[C@H]2S1"
Result: 16

Query: Query MIC for "N[C@H]1C[C@@H](C2=C(C(=O)O)N3C(=O)C[C@H]3S2)C1"
Result: 4

Query: Query MIC for O=C(O)CCC1=C(C(=O)O)N2C(=O)CC2S1 (centres unmarked)
Result: 63

Query: Query MIC for O=C(O)C1=C(Cc2cccs2)SC2CC(=O)N12 (centres unmarked)
Result: 32

Query: Query MIC for CC1=C(C(=O)O)N2C(=O)C(C(C)(C)O)C2S1 (centres unmarked)
Result: 125

Query: Query MIC for CCCCC1=C(C(=O)[O-])N2C(=O)C[C@H]2S1.[Na+] [Preparation 24, Sodium 2-butylpenem-3-carboxylate]
Result: 63

Query: Query MIC for NCCCC1=C(C(=O)O)N2C(=O)CC2S1 (centres unmarked) [Example 22, Sodium 2-Aminopropylpenem-3-carboxylate]
Result: 32

Query: Query MIC for CC1=C(C(=O)O)N2C(=O)[C@@H](CO)[C@H]2S1 (relative stereo)
Result: 63

Query: Query MIC for NCc1ccc(C2=C(C(=O)O)N3C(=O)CC3S2)cc1 (centres unmarked)
Result: 32
